molecular target: Sodium/potassium-transporting ATPase; experiment: In vitro inhibitory concentration against dog kidney Na+/K+ ATPase
outcome.measure: pIC50
// pIC50 here means minus log10 of the molar concentration (mol/L)

// solved cases for pIC50 follow
CC(/C=N/OCCCCN)=C\[C@H]1CC[C@]2(O)[C@@H]3CC[C@@H]4C[C@@H](O)CC[C@]4(C)[C@H]3CC[C@]12C
5.90
C[C@]12CC[C@H](O)C[C@H]1CC[C@@H]1[C@@H]2CC[C@]2(C)[C@@H](/C=C/C=C/CCN)CC[C@]12O
7.10
CN(C)CCCO/N=C/C=C1\CC[C@]2(O)[C@@H]3CC[C@@H]4C[C@@H](O)CC[C@]4(C)[C@H]3CC[C@]12C
3.80
C[C@]12CC[C@H](O)C[C@H]1CC[C@@H]1[C@@H]2CC[C@]2(C)[C@@H](/C=C/C=N/OCCN)CC[C@]12O
7.70
CN(C)CCCCO/N=C/[C@H]1CC[C@]2(O)[C@@H]3CC[C@@H]4C[C@@H](O)CC[C@]4(C)[C@H]3CC[C@]12C
5.70

Consider now this further compound.
Q: Please provide the recorded pIC50 for `C[C@]12CC[C@H](O)C[C@H]1CC[C@@H]1[C@@H]2CC[C@]2(C)[C@@H](CNOCCN)CC[C@]12O.Cl.Cl` , tested on Sodium/potassium-transporting ATPase.
Ans: 5.80

###

biological target: Sodium/potassium-transporting ATPase; assay: In vitro inhibitory concentration against dog kidney Na+/K+ ATPase; format: protein-complex assay, Canis lupus familiaris
outcome.measure: IC50

Here is how some compounds turned out for IC50.
CN(C)CCCCO/N=C1\CC[C@]2(O)[C@@H]3CC[C@@H]4C[C@@H](O)CC[C@]4(C)[C@H]3CC[C@]12C
> 100 µM
CCCO/N=C/C(C)=C/[C@H]1CC[C@]2(O)[C@@H]3CC[C@@H]4C[C@@H](O)CC[C@]4(C)[C@H]3CC[C@]12C
> 10 µM

Moving on to another compound below.
Q: Please give the measured IC50 for this compound: `C[C@]12CC[C@H](O)C[C@H]1CC[C@@H]1[C@@H]2CC[C@]2(C)[C@@H](/C=N/OCC(=O)O)CC[C@]12O`
Ans: > 100 µM
